Reported pIC50 values follow for various compounds
- Experimental System: mouse TRPM3α2 (mTRPM3) ion channel (Mus musculus, UniProt J9SQF3)
- Sequence (J9SQF3 1-1709 isoform J9SQF3-12): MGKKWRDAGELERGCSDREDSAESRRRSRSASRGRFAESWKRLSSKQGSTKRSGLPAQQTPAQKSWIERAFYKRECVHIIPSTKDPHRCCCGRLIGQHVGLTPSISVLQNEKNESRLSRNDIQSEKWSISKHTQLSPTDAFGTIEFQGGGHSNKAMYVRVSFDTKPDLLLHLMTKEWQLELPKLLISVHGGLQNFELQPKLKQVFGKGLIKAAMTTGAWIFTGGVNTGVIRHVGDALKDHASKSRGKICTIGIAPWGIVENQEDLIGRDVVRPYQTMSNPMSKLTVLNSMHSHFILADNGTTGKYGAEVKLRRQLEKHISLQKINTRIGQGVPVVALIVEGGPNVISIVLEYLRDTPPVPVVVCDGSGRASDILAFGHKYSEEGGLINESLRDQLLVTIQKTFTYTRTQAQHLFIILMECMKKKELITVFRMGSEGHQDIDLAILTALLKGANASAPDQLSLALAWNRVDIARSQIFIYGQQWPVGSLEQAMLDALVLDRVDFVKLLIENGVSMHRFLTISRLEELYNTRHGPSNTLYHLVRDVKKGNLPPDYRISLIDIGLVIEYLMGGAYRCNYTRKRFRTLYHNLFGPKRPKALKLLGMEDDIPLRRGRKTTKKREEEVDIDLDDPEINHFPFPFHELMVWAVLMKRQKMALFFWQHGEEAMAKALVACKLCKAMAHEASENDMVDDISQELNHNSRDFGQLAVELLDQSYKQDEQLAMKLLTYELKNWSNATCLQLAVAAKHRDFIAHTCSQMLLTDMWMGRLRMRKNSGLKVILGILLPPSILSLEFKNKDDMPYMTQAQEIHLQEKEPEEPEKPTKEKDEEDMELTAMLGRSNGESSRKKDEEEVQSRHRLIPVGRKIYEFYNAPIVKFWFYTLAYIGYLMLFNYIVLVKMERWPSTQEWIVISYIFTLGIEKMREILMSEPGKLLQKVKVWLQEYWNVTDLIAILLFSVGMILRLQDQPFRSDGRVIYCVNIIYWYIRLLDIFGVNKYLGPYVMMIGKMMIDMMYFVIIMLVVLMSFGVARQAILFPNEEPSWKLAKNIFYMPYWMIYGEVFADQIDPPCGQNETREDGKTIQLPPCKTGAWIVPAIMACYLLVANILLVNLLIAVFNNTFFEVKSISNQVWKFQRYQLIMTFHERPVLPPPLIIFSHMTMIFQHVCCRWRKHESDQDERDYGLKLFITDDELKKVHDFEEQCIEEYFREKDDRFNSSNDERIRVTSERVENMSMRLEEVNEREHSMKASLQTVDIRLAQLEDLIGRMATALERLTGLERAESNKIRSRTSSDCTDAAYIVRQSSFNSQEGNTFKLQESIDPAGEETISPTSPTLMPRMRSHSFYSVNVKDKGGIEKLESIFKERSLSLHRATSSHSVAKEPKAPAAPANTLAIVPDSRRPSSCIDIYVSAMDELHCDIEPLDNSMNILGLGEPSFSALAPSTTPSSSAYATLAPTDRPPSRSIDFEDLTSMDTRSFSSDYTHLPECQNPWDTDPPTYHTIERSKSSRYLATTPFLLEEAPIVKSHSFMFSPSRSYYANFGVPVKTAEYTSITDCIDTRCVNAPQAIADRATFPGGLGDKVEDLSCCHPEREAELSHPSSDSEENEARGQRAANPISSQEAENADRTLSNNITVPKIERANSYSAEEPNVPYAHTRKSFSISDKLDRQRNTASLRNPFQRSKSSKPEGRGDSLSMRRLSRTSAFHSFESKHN
- Experiment Description: TRPM3 ion channel driven Ca2+ uptake, Fluo-4 AM assay, mTRPM3alpha2 overexpressing flip-in HEK293 cells stimulated with pregnenolone sulfate (50 μM)
- Protocol Conditions: mTRPM3 overexpressing HEK293 cells stimulated with pregnenolone sulfate (50 μM), activity ranges A, B, C
pIC50: −log10 of the molar value.

In [3]: df
Out[3]:
                                   compound  endpoint_name   test_result
0  Cn1nc2ccc(OCc3ccccc3)cc2c1C(=O)N[C@@H]1COC[C@H]1O (single isomer, unassigned) [Cpd 011 - Dia2]          pIC50  4.70 to 6.00
1  Cc1ncsc1COc1ccc2nn(C)c(C(=O)N[C@@H](CO)C(N)=O)c2c1 [Cpd 116]          pIC50        > 6.00
2  Cn1nc2ccc(OCc3ccccn3)cc2c1C(=O)NC(C)(CO)CO [Cpd 127]          pIC50        > 6.00
3  Cn1nc2ccc(OCc3ccccn3)cc2c1C(=O)NC1CNCC1C(F)(F)F (single isomer, unassigned) [Cpd 246 - En2]          pIC50        > 6.00
4  C[C@@H](O)[C@H](NC(=O)c1c2cc(OCC3CC3)ccc2nn1C)C(N)=O [Cpd 138]          pIC50  4.70 to 6.00

Form: compound = Cn1nc2ccc(OCC3CCOCC3)cc2c1C(=O)NC(C)(CO)C(N)=O (single isomer, unassigned) [Cpd 158 - En2] ; pIC50 = < 4.70

The reported value for Cn1nc2ccc(OCc3ccccc3C(F)F)cc2c1C(=O)NC(C)(CO)C(N)=O (single isomer, unassigned) [Cpd 191 - En2] in terms of pIC50 is > 6.00

Notebook: Cn1nccc1COc1ccc2nn(C)c(C(=O)NC3CCN(CCO)C3=O)c2c1 (centres unmarked) [Cpd 039] , pIC50 read as < 4.70

Just so you know, measured pIC50 for Cn1nc2ccc(OCc3ccccc3F)cc2c1C(=O)NC1(CO)CCC1 [Cpd 094] came out at 4.70 to 6.00

So, Cc1ncsc1COc1ccc2nn(C)c(C(=O)NC3(CO)CCOCC3)c2c1 [Cpd 001] ? Its pIC50 was 4.70 to 6.00

Reported pIC50 ( CC(=O)C(C)(CO)NC(=O)c1c2cc(OCc3ccccn3)ccc2nn1C (single isomer, unassigned) [Cpd 232 - En1] ) = 4.70 to 6.00

###

- Experimental System: mouse TRPM3α2 (mTRPM3) ion channel (Mus musculus)
- Experiment Description: TRPM3 ion channel driven Ca2+ uptake, Fluo-4 AM assay, mTRPM3alpha2 overexpressing flip-in HEK293 cells stimulated with pregnenolone sulfate (50 μM)
- Protocol Conditions: mTRPM3 overexpressing HEK293 cells stimulated with pregnenolone sulfate (50 μM), activity ranges A, B, C
pIC50: −log10 of the molar value.
Endpoint Name: pIC50

Please review the following examples before continuing.
>>> print(df.to_string())
                                   compound  endpoint_name   test_result
0  Cn1nc2ccc(OCC(F)F)cc2c1C(=O)NC(C)(CO)C(N)=O (single isomer, unassigned) [Cpd 187 - En1]          pIC50        < 4.70
1  Cn1nc2ccc(OCc3ccccn3)cc2c1C(=O)NC(CO)c1nccn1C1CC1 (single isomer, unassigned) [Cpd 238 - En1]          pIC50  4.70 to 6.00
2  Cn1nc2ccc(OCc3ccccn3)cc2c1C(=O)NC1CCOCC1          pIC50        < 4.70
3  Cn1nc2ccc(OCC3CCC3)cc2c1C(=O)NC(C)(CO)C(N)=O (single isomer, unassigned) [Cpd 173 - En1]          pIC50        > 6.00
4  Cc1ncsc1COc1ccc2nn(C)c(C(=O)NC3CCN(CCO)C3=O)c2c1 (stereo not shown)          pIC50        < 4.70
5  CC(=O)C(C)(CO)NC(=O)c1c2cc(OCc3ccccn3)ccc2nn1C (single isomer, unassigned) [Cpd 232 - En2]          pIC50        > 6.00

Next up:
// pIC50 lookup, compound = Cn1nc2ccc(OCC3COC3)cc2c1C(=O)NC(C)(CO)C(N)=O (single isomer, unassigned) [Cpd 167 - En2] , result: < 4.70

###

IC50 reference
- Experimental System: mouse TRPM3α2 (mTRPM3) ion channel (Mus musculus)
- Construct: expressed in transfected cells; host or cells: flip-in HEK293
- Experiment Description: TRPM3 ion channel driven Ca2+ uptake, Fluo-4 AM assay, mTRPM3alpha2 overexpressing flip-in HEK293 cells stimulated with pregnenolone sulfate (50 μM)
- Type: cell-based
- Protocol Conditions: mTRPM3 overexpressing HEK293 cells stimulated with pregnenolone sulfate (50 μM), activity ranges A, B, C

In [3]: df
Out[3]:
                                   compound                       experimental_system  endpoint_name       test_result
0  Cn1nc2ccc(OCc3ccccc3)cc2c1C(=O)NC1(CCO)CCC1 [Cpd 051]  mouse TRPM3α2 (mTRPM3) ion channel (Mus musculus)           IC50  1000 to 20000 nM

Turning now to a further compound:
Recorded result, Cc1ncsc1COc1ccc2nn(C)c(C(=O)NC(C)(CO)CC(F)F)c2c1 (single isomer, unassigned) [Cpd 182 - En1] , IC50: < 1000 nM

###

Reported pIC50 values follow for various molecules
- Experimental System: mouse TRPM3α2 (mTRPM3) ion channel (Mus musculus, UniProt J9SQF3)
- Experiment Description: TRPM3 ion channel driven Ca2+ uptake, Fluo-4 AM assay, mTRPM3alpha2 overexpressing flip-in HEK293 cells stimulated with pregnenolone sulfate (50 μM)
- Protocol Conditions: mTRPM3 overexpressing HEK293 cells stimulated with pregnenolone sulfate (50 μM), activity ranges A, B, C
pIC50: −log10 of the molar value.

>>> print(df.to_string())
                                   molecule                       experimental_system  test_result
0  Cc1ncc(COc2ccc3nn(C)c(C(=O)N[C@H](C(N)=O)[C@@H](C)O)c3c2)s1  mouse TRPM3α2 (mTRPM3) ion channel (Mus musculus, UniProt J9SQF3)       > 6.00
1  Cn1nccc1COc1ccc2nn(C)c(C(=O)NCC3CCC(=O)N3)c2c1 (stereo not shown)  mouse TRPM3α2 (mTRPM3) ion channel (Mus musculus, UniProt J9SQF3)       < 4.70
2  Cn1nccc1COc1ccc2nn(C)c(C(=O)NC3COCC3O)c2c1 (single isomer, unassigned) [Cpd 056 - Dia2]  mouse TRPM3α2 (mTRPM3) ion channel (Mus musculus, UniProt J9SQF3)       < 4.70

Short answer on mouse TRPM3α2 (mTRPM3) ion channel (Mus musculus, UniProt J9SQF3) for Cn1nc2ccc(OCc3ccccc3F)cc2c1C(=O)O , pIC50: 4.70 to 6.00

# lookup: Cc1ncc(COc2ccc3nn(C)c(C(=O)NC4(CO)CCOCC4)c3c2)s1 on mouse TRPM3α2 (mTRPM3) ion channel (Mus musculus, UniProt J9SQF3), pIC50 = < 4.70

The molecule Cn1nc2ccc(OCC3CC3)cc2c1C(=O)N[C@H](CO)C(N)=O , tested on mouse TRPM3α2 (mTRPM3) ion channel (Mus musculus, UniProt J9SQF3), showed pIC50 of 4.70 to 6.00

Form field pIC50 for item C[C@H](NC(=O)c1c2cc(OCc3ccccc3F)ccc2nn1C)C(N)=O on mouse TRPM3α2 (mTRPM3) ion channel (Mus musculus, UniProt J9SQF3): > 6.00

###

- Experimental System: mouse TRPM3α2 (mTRPM3) ion channel (Mus musculus, UniProt J9SQF3)
- Experiment Description: TRPM3 ion channel driven Ca2+ uptake, Fluo-4 AM assay, mTRPM3alpha2 overexpressing flip-in HEK293 cells stimulated with pregnenolone sulfate (50 μM)
- Protocol Conditions: mTRPM3 overexpressing HEK293 cells stimulated with pregnenolone sulfate (50 μM), activity ranges A, B, C
pIC50: −log10 of the molar value.
Endpoint Name: pIC50

                                   molecule  endpoint_name   test_result
0       Cn1nc2ccc(OCc3ccccn3)cc2c1C(=O)NCCO          pIC50        < 4.70
1  Cc1ncc(COc2ccc3nn(C(C)C)c(C(=O)NC(C)(CO)C(N)=O)c3c2)s1 (single isomer, unassigned) [Cpd 195 - En2]          pIC50        > 6.00
2  Cn1nccc1COc1ccc2nn(C)c(C(=O)NC3(C(N)=O)CCC3)c2c1          pIC50  4.70 to 6.00
3  Cn1nc2ccc(OCc3ccccc3F)cc2c1C(=O)NC1(CO)CCNC1=O (single isomer, unassigned) [Cpd 171 -En1]          pIC50        > 6.00

We now examine a further molecule.
Note to self: pIC50 recorded for Cn1nc2ccc(OCc3ccccn3)cc2c1C(=O)NC(CCO)c1ccc(F)cc1 (single isomer, unassigned) [Cpd 223 - En1] was < 4.70
